experimental_target: ABL1 G250E (Homo sapiens, UniProt P00519, G250E)
run_description: SelectScreen kinase specificity survey
settings: estimated, abridged dose response curve, read-out: Kinase inhibitory activity EC50
endpoint_name: EC50 (µM)
Your answer should be a plain number; it is taken to be in µM.

Tell me the measured EC50 of CN(C)CCCNc1ccc2ncn3c4ccc5[nH]ncc5c4c(=O)c1c23 [Compound (IV)] , please.
4.05

###

Provide the reported EC50 of each item.
experimental_target: PRKCA (PKC alpha) (Homo sapiens)
run_description: SelectScreen kinase specificity survey
settings: estimated, abridged dose response curve, read-out: Kinase inhibitory activity EC50

Please give the measured EC50 for this compound: `CN(C)CCCNc1ccc2ncn3c4ccc5[nH]ncc5c4c(=O)c1c23`
> 5 µM

Item under review: CCN(CC)CCNc1ccc2ncn3c4ccc(O)cc4c(=O)c1c23 [Symadex, reference compound] . Reported EC50?
> 5 µM

###

experimental_target: GRK6 (Homo sapiens)
Construct: purchased Invitrogen (SelectScreen platform)
run_description: SelectScreen kinase specificity survey
Type: biochemical
endpoint_name: EC50

Data request, read-out EC50, for CCN(CC)CCNc1ccc2ncn3c4ccc(O)cc4c(=O)c1c23 [Symadex, reference compound]
> 5 µM

###

experimental_target: RPS6KA5 (MSK1) (Homo sapiens, UniProt O75582)
Construct: purchased Invitrogen, Inc. (SelectScreen platform)
Sequence (O75582 whole entry): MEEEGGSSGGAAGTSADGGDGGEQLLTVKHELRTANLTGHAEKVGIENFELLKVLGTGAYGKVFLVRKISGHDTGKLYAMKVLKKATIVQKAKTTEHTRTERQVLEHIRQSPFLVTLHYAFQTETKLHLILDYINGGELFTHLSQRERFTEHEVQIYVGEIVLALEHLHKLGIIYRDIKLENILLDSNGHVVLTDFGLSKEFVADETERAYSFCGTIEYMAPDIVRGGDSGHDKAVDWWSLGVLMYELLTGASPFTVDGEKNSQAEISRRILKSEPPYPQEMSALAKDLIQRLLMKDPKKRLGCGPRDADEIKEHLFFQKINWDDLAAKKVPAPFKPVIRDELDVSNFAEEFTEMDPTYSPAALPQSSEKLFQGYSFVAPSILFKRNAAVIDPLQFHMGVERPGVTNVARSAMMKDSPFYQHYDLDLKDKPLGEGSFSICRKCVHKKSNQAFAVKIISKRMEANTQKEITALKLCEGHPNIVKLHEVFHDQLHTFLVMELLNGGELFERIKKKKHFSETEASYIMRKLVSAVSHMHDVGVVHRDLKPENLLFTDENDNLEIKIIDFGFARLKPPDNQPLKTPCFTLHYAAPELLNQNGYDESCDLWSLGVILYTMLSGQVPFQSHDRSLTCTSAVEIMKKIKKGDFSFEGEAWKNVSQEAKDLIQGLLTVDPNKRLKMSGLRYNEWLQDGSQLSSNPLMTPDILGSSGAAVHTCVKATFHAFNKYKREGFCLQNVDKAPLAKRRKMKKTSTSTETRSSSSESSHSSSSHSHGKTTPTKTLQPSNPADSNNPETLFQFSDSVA
run_description: SelectScreen kinase specificity survey
Assay type: biochemical
settings: estimated, abridged dose response curve, read-out: Kinase inhibitory activity EC50
pEC50: −log10 of the molar value.
endpoint_name: pEC50

Recorded pEC50 of `CN(C)CCCNc1ccc2ncn3c4ccc5[nH]ncc5c4c(=O)c1c23` , please.
< 5.30

What measured pEC50 goes with CCN(CC)CCNc1ccc2ncn3c4ccc(O)cc4c(=O)c1c23 [Symadex, reference compound] ?
< 5.30

###

experimental_target: GRK4 (Homo sapiens)
Construct: purchased Invitrogen (SelectScreen platform)
run_description: SelectScreen kinase specificity survey
Format: biochemical
pEC50: −log10 of the molar value.
endpoint_name: pEC50

Quick one: pEC50 for CCN(CC)CCNc1ccc2ncn3c4ccc(O)cc4c(=O)c1c23 [Symadex, reference compound] ?
< 5.30

###

Kindly state EC50 for each of the entries shown.
experimental_target: PRKACA (PKA, PKACA) (Homo sapiens, UniProt P17612)
Construct: purchased Invitrogen (SelectScreen platform)
run_description: SelectScreen kinase specificity survey
Type: biochemical
settings: estimated, abridged dose response curve, read-out: Kinase inhibitory activity EC50
Protocol: Testing of the compounds described in this invention was carried out using the SelectScreen™ platform from Invitrogen, Inc. (Carlsbad. Calif., USA) and the details of its performance are readily viewed via the web by linking to: http://www.invitrogen.com/downloads/SelectScrn_Brochure.pdf. Briefly, the approach is based on treating each specific kinase with a unique substrate and optical reporter system in the presence of ATP at 100 micromolar. […]

Find the recorded EC50 belonging to CCN(CC)CCNc1ccc2ncn3c4ccc(O)cc4c(=O)c1c23 [Symadex, reference compound] and report it.
> 5 µM

Would you mind telling me what EC50 value was observed for `CN(C)CCCNc1ccc2ncn3c4ccc5[nH]ncc5c4c(=O)c1c23` ?
> 5 µM

###

experimental_target: UniProt:P30530
Sequence (P30530 26-894): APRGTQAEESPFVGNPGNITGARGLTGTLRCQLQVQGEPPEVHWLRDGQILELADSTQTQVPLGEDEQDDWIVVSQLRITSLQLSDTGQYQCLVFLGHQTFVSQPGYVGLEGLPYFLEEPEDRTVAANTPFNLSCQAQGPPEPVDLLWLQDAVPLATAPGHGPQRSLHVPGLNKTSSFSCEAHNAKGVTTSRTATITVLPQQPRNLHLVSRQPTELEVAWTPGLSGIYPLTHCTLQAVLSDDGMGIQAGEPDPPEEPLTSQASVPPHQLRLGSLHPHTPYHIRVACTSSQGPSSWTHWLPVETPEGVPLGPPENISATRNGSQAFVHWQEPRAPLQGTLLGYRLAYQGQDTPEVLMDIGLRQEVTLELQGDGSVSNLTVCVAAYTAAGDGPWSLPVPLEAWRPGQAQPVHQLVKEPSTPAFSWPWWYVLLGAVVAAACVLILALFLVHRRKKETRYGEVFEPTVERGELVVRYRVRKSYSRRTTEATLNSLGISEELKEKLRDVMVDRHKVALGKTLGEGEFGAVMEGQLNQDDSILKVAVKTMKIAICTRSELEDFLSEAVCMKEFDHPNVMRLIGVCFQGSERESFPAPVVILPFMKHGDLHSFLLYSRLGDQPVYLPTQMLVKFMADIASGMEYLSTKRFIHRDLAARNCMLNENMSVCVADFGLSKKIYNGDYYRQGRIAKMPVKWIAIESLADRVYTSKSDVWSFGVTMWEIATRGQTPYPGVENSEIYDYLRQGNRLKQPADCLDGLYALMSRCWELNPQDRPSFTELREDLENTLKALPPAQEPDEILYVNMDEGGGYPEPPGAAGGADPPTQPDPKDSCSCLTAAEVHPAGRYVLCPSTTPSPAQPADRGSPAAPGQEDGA
run_description: SelectScreen kinase specificity survey
settings: estimated, abridged dose response curve, read-out: Kinase inhibitory activity EC50
Method: Testing of the compounds described in this invention was carried out using the SelectScreen™ platform from Invitrogen, Inc. (Carlsbad. Calif., USA) and the details of its performance are readily viewed via the web by linking to: http://www.invitrogen.com/downloads/SelectScrn_Brochure.pdf. Briefly, the approach is based on treating each specific kinase with a unique substrate and optical reporter system in the presence of ATP at 100 micromolar. […]
I'd be grateful if you could share measured EC50 for these entries.
Respond with a number, then the unit of measure.

Please look up its EC50: CCN(CC)CCNc1ccc2ncn3c4ccc(O)cc4c(=O)c1c23 [Symadex, reference compound]
3.77 µM

Consider the compound shown here: CN(C)CCCNc1ccc2ncn3c4ccc5[nH]ncc5c4c(=O)c1c23 [Compound (IV)] What is its recorded EC50?
4.44 µM

###

experimental_target: CAMK2A (CaMKII alpha) (Homo sapiens, UniProt Q9UQM7)
run_description: SelectScreen kinase specificity survey
settings: estimated, abridged dose response curve, read-out: Kinase inhibitory activity EC50
endpoint_name: pEC50
pEC50 field: float, defined as -log10 of concentration (mol/L).

# lookup: pEC50 of `CN(C)CCCNc1ccc2ncn3c4ccc5[nH]ncc5c4c(=O)c1c23`
6.10

###

experimental_target: MINK1 (ZC3) (Homo sapiens)
run_description: SelectScreen kinase specificity survey
settings: estimated, abridged dose response curve, read-out: Kinase inhibitory activity EC50
endpoint_name: EC50

Request the reported EC50 associated with `CN(C)CCCNc1ccc2ncn3c4ccc5[nH]ncc5c4c(=O)c1c23`
1360 nM

What does the data say about its EC50? Entry: CCN(CC)CCNc1ccc2ncn3c4ccc(O)cc4c(=O)c1c23 [Symadex, reference compound]
1090 nM

###

experimental_target: EPHB1 (Homo sapiens, UniProt P54762)
Construct: purchased Invitrogen (SelectScreen service)
run_description: SelectScreen kinase specificity survey
Type: biochemical
settings: EPHB1; estimated, abridged dose response curve; read-out: Kinase inhibitory activity EC50
pEC50: −log10 of the molar value.
endpoint_name: pEC50

Give the measured pEC50 of `CN(C)CCCNc1ccc2ncn3c4ccc5[nH]ncc5c4c(=O)c1c23` .
< 5.30

###

experimental_target: UniProtKB Q13464
run_description: SelectScreen kinase specificity survey
settings: estimated, abridged dose response curve, read-out: Kinase inhibitory activity EC50
endpoint_name: pEC50
As a rule, pEC50 stands for the negative log10 of the concentration, concentration in M.

Data request, read-out pEC50, for `CN(C)CCCNc1ccc2ncn3c4ccc5[nH]ncc5c4c(=O)c1c23`
6.31

###

experimental_target: MAPK3 (ERK1) (Homo sapiens)
Sequence (P27361 whole entry): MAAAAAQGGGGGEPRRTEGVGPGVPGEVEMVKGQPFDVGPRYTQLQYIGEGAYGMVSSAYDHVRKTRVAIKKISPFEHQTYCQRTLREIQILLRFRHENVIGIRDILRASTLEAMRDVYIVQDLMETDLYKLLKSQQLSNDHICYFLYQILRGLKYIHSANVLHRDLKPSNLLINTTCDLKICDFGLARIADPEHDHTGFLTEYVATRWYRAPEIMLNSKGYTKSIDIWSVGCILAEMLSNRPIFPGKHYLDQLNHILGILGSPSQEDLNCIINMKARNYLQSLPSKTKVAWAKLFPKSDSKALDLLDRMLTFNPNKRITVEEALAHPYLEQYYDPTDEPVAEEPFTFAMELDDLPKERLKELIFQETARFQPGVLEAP
run_description: SelectScreen kinase specificity survey
settings: estimated, abridged dose response curve, read-out: Kinase inhibitory activity EC50
I'd appreciate it if you could supply EC50 values for the items below.

Please give the measured EC50 for this molecule: `CN(C)CCCNc1ccc2ncn3c4ccc5[nH]ncc5c4c(=O)c1c23`
> 5 µM

Quick one: EC50 for CCN(CC)CCNc1ccc2ncn3c4ccc(O)cc4c(=O)c1c23 [Symadex, reference compound] ?
> 5 µM

###

experimental_target: RPS6KA2 (RSK3) (Homo sapiens, UniProt Q15349)
Sequence (Q15349 whole entry): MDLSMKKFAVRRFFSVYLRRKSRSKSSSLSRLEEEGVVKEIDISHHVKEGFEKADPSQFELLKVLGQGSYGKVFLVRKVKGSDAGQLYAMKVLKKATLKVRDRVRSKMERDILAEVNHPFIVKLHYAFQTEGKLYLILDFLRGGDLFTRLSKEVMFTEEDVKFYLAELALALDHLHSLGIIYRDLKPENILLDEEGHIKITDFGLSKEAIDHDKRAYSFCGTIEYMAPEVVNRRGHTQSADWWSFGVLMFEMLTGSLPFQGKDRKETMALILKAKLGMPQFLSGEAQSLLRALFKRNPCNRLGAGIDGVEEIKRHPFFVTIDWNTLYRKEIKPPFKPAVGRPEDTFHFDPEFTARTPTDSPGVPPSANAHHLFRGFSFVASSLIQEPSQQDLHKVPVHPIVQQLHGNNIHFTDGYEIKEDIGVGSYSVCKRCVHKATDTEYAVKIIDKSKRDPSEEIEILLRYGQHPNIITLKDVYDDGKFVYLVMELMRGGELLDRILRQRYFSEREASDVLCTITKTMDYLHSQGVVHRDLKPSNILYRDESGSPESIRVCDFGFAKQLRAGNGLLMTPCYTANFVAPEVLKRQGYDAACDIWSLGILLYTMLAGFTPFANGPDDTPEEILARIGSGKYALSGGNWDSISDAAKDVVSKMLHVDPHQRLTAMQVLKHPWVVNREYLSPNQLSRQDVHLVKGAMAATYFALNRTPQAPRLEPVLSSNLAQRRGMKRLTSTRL
run_description: SelectScreen kinase specificity survey
settings: estimated, abridged dose response curve, read-out: Kinase inhibitory activity EC50
endpoint_name: EC50 (µM)
// units = µM; emit number, no label

Enter reported EC50 observed with RPS6KA2 (RSK3) (Homo sapiens, UniProt Q15349) for CCN(CC)CCNc1ccc2ncn3c4ccc(O)cc4c(=O)c1c23 [Symadex, reference compound]
0.46

Lookup: EC50 / RPS6KA2 (RSK3) (Homo sapiens, UniProt Q15349) / `CN(C)CCCNc1ccc2ncn3c4ccc5[nH]ncc5c4c(=O)c1c23`
0.84

###

experimental_target: UniProt:P78362
Sequence (P78362 whole entry): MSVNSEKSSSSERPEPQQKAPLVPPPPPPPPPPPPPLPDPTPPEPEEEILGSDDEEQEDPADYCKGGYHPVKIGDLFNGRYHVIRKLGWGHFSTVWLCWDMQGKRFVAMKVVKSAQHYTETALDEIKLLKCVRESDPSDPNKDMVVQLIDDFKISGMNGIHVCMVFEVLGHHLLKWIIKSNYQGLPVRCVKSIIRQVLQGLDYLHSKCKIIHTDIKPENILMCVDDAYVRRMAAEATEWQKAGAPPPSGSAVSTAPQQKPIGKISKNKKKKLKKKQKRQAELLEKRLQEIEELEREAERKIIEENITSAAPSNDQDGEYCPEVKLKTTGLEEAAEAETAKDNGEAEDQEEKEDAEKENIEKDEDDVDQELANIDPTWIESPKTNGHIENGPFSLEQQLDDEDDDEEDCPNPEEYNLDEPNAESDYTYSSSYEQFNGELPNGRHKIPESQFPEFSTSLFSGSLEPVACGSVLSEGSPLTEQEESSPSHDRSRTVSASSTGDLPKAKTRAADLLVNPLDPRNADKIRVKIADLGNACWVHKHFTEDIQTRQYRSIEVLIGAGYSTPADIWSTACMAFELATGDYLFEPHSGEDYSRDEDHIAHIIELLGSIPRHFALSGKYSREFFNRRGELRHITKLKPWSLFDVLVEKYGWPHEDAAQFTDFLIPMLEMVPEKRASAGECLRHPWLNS
run_description: SelectScreen kinase specificity survey
settings: estimated, abridged dose response curve, read-out: Kinase inhibitory activity EC50
pEC50: −log10 of the molar value.
endpoint_name: pEC50

Query: pEC50; subject: `CN(C)CCCNc1ccc2ncn3c4ccc5[nH]ncc5c4c(=O)c1c23`
< 5.30

Can you share its pEC50? I mean this molecule: CCN(CC)CCNc1ccc2ncn3c4ccc(O)cc4c(=O)c1c23 [Symadex, reference compound]
< 5.30

###

experimental_target: JAK3 (Homo sapiens, UniProt P52333)
Construct: purchased Invitrogen (SelectScreen platform)
Sequence (P52333 whole entry): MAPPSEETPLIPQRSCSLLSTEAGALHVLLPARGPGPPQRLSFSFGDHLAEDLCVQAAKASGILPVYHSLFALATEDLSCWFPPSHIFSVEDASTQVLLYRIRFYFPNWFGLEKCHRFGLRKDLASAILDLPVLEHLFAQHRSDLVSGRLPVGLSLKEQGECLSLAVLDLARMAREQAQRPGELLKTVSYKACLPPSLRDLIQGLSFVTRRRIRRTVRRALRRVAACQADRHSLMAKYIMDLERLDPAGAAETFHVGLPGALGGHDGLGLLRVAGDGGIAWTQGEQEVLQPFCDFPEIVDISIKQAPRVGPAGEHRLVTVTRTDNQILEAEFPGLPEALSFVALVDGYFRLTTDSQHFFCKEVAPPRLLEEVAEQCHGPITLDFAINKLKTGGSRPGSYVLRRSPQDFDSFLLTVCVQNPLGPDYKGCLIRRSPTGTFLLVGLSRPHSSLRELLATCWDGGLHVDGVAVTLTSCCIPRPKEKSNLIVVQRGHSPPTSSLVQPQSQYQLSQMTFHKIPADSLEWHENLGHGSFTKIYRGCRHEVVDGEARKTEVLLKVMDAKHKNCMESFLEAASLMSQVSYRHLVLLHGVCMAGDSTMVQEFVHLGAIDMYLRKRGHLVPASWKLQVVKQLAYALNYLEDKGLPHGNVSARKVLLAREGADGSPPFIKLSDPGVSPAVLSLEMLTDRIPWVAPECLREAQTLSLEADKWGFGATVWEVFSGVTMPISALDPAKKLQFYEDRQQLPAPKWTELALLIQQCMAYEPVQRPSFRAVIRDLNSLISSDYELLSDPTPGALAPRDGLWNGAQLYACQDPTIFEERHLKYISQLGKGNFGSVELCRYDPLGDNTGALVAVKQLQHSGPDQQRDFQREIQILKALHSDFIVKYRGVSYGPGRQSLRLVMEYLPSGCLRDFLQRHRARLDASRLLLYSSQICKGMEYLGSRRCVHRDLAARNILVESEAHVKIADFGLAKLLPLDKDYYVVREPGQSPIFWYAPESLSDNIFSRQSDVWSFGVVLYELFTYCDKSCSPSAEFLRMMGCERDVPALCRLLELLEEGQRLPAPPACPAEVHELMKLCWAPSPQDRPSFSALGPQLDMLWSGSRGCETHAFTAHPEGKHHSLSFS
run_description: SelectScreen kinase specificity survey
Type: biochemical
settings: estimated, abridged dose response curve, read-out: Kinase inhibitory activity EC50
Task for the reader: assign each of the following compounds its reported EC50.

Query (compound): `CN(C)CCCNc1ccc2ncn3c4ccc5[nH]ncc5c4c(=O)c1c23` ; field requested: EC50
> 5 µM

I would be grateful if you could share the reported EC50 for CCN(CC)CCNc1ccc2ncn3c4ccc(O)cc4c(=O)c1c23 [Symadex, reference compound] .
> 5 µM

###

experimental_target: CDK1/cyclin B (CDC2) (Homo sapiens, UniProt P06493)
Construct: purchased Invitrogen (SelectScreen platform)
run_description: SelectScreen kinase specificity survey
Format: biochemical
settings: estimated, abridged dose response curve, read-out: Kinase inhibitory activity EC50
endpoint_name: EC50 (µM)
Value expressed in µM; do not type the unit.

Missing value: EC50, CDK1/cyclin B (CDC2) (Homo sapiens, UniProt P06493), entry CN(C)CCCNc1ccc2ncn3c4ccc5[nH]ncc5c4c(=O)c1c23 [Compound (IV)] . Fill in?
3.95

###

experimental_target: MST4 (Homo sapiens)
Sequence (Q9P289 whole entry): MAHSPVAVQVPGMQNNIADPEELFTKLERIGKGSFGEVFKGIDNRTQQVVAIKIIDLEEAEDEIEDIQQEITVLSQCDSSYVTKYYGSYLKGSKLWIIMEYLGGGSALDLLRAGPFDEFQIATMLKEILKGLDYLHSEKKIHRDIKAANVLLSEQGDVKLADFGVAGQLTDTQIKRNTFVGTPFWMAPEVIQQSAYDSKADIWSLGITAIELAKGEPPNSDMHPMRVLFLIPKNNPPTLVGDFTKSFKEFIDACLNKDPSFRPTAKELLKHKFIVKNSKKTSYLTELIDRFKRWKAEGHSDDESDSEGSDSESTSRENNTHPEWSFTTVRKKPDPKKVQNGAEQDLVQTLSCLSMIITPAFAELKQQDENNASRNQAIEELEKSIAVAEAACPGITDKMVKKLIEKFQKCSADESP
run_description: SelectScreen kinase specificity survey
settings: estimated, abridged dose response curve, read-out: Kinase inhibitory activity EC50
endpoint_name: EC50 (µM)
Note: unit µM is implicit; provide only the numeric part.

Item CCN(CC)CCNc1ccc2ncn3c4ccc(O)cc4c(=O)c1c23 [Symadex, reference compound] has what recorded EC50?
1.58
